Biological target: lipoxygenase (Rattus norvegicus, UniProt P12527)
Construct: the peritoneal cavities were lavaged and the polymorphonuclear leukocytes were recovered; endogenous in cells
Sequence (P12527 1-673): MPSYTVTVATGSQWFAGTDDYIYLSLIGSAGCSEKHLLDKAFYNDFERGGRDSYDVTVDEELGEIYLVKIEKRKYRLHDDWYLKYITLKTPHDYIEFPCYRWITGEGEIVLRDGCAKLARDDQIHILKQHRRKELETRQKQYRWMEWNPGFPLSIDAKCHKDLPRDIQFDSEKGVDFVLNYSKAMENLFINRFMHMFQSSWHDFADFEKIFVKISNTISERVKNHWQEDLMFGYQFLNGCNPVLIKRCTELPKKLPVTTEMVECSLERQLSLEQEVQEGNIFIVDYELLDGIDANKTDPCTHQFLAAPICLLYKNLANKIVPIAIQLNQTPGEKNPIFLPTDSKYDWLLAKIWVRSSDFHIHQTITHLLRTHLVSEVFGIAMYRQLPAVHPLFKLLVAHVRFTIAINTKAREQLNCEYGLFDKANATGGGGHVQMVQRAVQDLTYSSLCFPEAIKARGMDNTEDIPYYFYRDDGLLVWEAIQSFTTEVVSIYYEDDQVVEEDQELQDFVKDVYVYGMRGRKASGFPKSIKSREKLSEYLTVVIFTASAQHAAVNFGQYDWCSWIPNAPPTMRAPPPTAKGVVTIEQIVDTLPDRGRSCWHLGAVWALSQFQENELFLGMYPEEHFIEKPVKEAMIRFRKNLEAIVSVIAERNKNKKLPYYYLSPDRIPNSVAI
Experiment: Test of lipoxygenase inhibitory action (production of leukotriene B4 in rat polymorphonuclear leukocytes)
Conditions: inhibiting the production of leukotriene B4, calcium ionophore A-23187, EIA, read-out: LTBI IC50
Protocol: Using rat polymorphonuclear leukocytes, a test of the lipoxygenase inhibitory activity of the test compounds was determined the amount of production of leukotriene B4. Wistar male rats (Japan Clea) were intraperitoneally administered with 12% sodium casein. […] After the reaction was stopped, the resultant mixture was centrifuged for 20 minutes (4°C, 3000 rpm), then the amount of leukotriene B4 in the supernatant was measured by the EIA method (Cayman Co. kit). […]
MEASURED_ENDPOINT: log10(IC50) (log10 of the value in nM)
// units: nM (pre-log); metric: IC50; scale: log10

Take a look at these entries with their results.
{"COMPOUND": "ON(CCCCCCCC(c1ccccc1)c1cccnc1)C(=S)Nc1ccccc1 (stereo not shown)", "ASSAYED_SYSTEM": "lipoxygenase (Rattus norvegicus, UniProt P12527)", "VALUE_REPORTED": 1.60}
{"COMPOUND": "NC(=O)N(O)CCC=C(c1cccnc1)c1cccc(C(F)(F)F)c1", "ASSAYED_SYSTEM": "lipoxygenase (Rattus norvegicus, UniProt P12527)", "VALUE_REPORTED": 3.30}
{"COMPOUND": "NC(=O)N(O)Cc1ccc(OC(c2ccccc2)c2cccnc2)cc1 (stereo not shown)", "ASSAYED_SYSTEM": "lipoxygenase (Rattus norvegicus, UniProt P12527)", "VALUE_REPORTED": 2.70}

Please look at this compound and report its log10(IC50): COc1cccc(NC(=O)N(O)Cc2cccc(OC(c3ccccc3)c3cccnc3)c2)c1 (stereo not shown)
1.95

Please look at this compound and report its log10(IC50): NC(=S)N(O)CCCCCC(c1ccccc1)c1cccnc1 (stereo not shown)
2.30

Please look at this compound and report its log10(IC50): CC(c1cccc(OC(c2ccccc2)c2cccnc2)c1)N(O)C(N)=O (stereo not shown)
3.00

Please look at this compound and report its log10(IC50): O=C(NC1CCCCC1)N(O)CCCC(c1ccccc1)c1cccnc1 (stereo not shown)
3.00
